The origin of these recorded values is patent US20210363269A1.

Exercise: for every item that follows, state its recorded koff.
Target: T1, cynomolgus SIRP-α D1 domain (cyno1) (cynomolgus monkey, UniProt Q5TFQ8 30-148 (human entry), limits assumed)
T1 chain: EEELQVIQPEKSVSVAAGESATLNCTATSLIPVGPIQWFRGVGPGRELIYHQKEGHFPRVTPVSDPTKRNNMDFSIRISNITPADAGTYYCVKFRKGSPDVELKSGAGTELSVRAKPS
Assay: SPR, Langmuir fit
Note: unit s⁻¹ is implicit; provide only the numeric part.

Prompt: Dear colleague, please send me the reported koff for S202 (scFv, V domains shown) VH: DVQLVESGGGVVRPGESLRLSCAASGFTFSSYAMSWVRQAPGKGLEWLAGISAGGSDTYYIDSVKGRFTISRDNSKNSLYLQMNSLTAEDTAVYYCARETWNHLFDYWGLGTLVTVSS VL: ALTQPASVSANPGETVKITCSGGGYYSTYYGWYQQRSPGSAPVTVIHSDDKRPSDIPSRFSGSASGSAATLTITGVRVEDEAVYYCAGYDGRTYLNTFGAGTTLTVL when you can.
Completion: 0.000113

Prompt: Dear colleague, please send me the reported koff for S21 (scFv, V domains shown, also called clone 21; scFv-Fc form of AB21) VH: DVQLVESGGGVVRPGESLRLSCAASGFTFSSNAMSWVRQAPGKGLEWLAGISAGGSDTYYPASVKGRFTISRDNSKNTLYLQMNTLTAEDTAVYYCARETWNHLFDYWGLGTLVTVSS VL: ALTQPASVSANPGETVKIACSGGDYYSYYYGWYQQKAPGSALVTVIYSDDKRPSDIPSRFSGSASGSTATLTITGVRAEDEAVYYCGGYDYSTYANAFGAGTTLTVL when you can.
Completion: 0.000233
